# Target desc: human MAO-B (Homo sapiens, UniProt P27338)
# Sequence (P27338 whole entry): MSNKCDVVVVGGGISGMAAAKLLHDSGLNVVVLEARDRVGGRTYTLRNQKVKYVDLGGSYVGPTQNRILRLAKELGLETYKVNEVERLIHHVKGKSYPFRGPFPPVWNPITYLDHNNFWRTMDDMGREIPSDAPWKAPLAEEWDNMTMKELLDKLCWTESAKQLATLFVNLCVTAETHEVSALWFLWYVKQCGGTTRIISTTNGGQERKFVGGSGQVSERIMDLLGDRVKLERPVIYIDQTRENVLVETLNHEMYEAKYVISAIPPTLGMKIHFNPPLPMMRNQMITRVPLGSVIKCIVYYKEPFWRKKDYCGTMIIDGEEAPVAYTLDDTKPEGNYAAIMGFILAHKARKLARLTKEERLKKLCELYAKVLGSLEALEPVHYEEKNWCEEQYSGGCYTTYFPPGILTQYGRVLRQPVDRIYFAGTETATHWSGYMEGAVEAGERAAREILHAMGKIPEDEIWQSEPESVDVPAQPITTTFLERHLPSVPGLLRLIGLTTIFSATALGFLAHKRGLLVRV
# Assay text: Amplex Red Monoamine Oxidase Assay-Kit, MAO-B affinity
# Assay setup: human MAO-B from baculovirus-infected insect cells; read-out: affinity towards MAO-B, IC50
Endpoint name: IC50
Put your answer as a value accompanied by its unit after it.

Please look up its IC50: [2H]C([2H])(C#C)N(C)[C@H](CF)Cc1ccccc1 [[^19F] D2 Deprenyl]
41.3 nM

====

# Target desc: MAO-A (Homo sapiens)
# Sequence (P21397 whole entry): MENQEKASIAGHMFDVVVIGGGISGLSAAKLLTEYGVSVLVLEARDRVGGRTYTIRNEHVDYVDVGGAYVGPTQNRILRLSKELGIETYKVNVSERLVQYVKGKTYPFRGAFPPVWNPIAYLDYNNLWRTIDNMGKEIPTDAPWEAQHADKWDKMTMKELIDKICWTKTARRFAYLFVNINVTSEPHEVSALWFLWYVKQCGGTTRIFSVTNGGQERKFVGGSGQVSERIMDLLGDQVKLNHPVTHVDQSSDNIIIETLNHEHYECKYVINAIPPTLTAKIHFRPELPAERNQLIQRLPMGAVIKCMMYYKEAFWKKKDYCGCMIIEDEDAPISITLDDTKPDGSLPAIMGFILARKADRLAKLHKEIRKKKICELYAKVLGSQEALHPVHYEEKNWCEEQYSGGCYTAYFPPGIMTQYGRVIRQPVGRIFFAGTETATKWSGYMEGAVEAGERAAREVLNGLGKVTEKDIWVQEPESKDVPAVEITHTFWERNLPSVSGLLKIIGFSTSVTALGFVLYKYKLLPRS
pIC50: −log10 of the molar value.
Endpoint name: pIC50

Param readout= pIC50; system= MAO-A (Homo sapiens); entry= [2H]C([2H])(C#C)N(C)[C@H](CF)Cc1ccccc1 [[^19F] D2 Deprenyl] ; returns value.
< 5.70
